B1: TPR t1 (parent)
chain: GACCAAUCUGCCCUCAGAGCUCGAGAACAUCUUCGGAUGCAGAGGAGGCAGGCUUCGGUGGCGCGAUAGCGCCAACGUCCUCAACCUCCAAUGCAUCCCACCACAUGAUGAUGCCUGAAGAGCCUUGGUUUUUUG

variants of: B1; assay: polymerase ribozyme fitness, log enrichment relative to wild type (log ratio); higher = more active; in vitro selection for triplet polymerase activity
metricName: polymerase ribozyme fitness (log ratio)

# annotated cases, reported polymerase ribozyme fitness (log ratio) shown
GGCCAAUCUGCCCUCAGAGCUCGAGAACAUCUUCGGAUGUAGAGGAGGCAGGCUUCGGUGGCGCGAUAGCGCCAACGACCUCAACUUCCAAUGCAUCCCACCACAUGAUGAUGCCUAAAGAGCCUUGGUUUUUUG [A2G C40U U78A C86U G117A]: -3.78
GACCAAUCUGCCCUCAGAGCUCGGGAACAUCUUCGGAUGCAGAGGAGGCAGGCUUCGGUCGCGCGAUAGCGCCAACGUACUCAACCUCCAAUGCAUCCCACCACAUGAUGAUGCCUGAAGAACCUUGGUUUUUUG [A24G G60C C79A G122A]: -5.59
GACCAAUCUGCCCUCAGAGCUCGAGAACAUCUUCGGAUGCAGAGGAGGUAGGCUGCGGUGGCGCGAUAGCGCCAACGUCCUCAACCUCCAAUGCAUCCCACCACAUGAUGAUGCCUGAAGAGCCUUGGUUUUUUG [C49U U55G]: -0.735
GACCAAUCUGCCCUCAGAGCUCGAGAACAUCUUCGGAUGCAGAGGAGGCAGGCUUCGGUGGCGCGAUAGCGCCAACGUCCUCAACCUCCAAUGCAUCCCACCACAAGAUGAUGCCUGAAGAGCCUUGGUUUUGUG [U106A U133G]: -0.54

get_value(item= GACCAAUCUGCCCUCAGAGCUCGAGAACAUCUUCGGAUGCAGAGGAGGCAGGCUUCGGUGGCGCGAUAGGGCUAACGUCCUCAACCUCCAAUGCAUCCCACCACAUGAUGAUGCCUGAAGAGCCUUGGUUUUUUG [C70G C73U] , readout=polymerase ribozyme fitness (log ratio)) returns -2.63

get_value(item= GACCAAUCUGCUCUCAGAGCUCGAGAACAUCUUCGGAUGCAGAGGAGGCAGGCUUCGGUGGCGCGAUAGCGCCAACGUCCUCAUCCUCCAAUGCAUCCCACCACAUGAUGAUGCCUGAAGAGCCUUGGUUGUUUG [C12U A84U U131G] , readout=polymerase ribozyme fitness (log ratio)) returns -0.996

get_value(item= GACCAAUUUGCCCUCAGAGCUCGAGAACAUCUUCGGAUGCAGAGGAGGCAGGCUUCGGUGGCGUGAUAGCGCCAACGUCCUCAACCUCCAAUGCAUCCCACCACAUGAUGAUGCCUGAAGAGCCUUGGUUUUUUG [C8U C64U] , readout=polymerase ribozyme fitness (log ratio)) returns 0.265

get_value(item= GACCAAUCUGCCCUCAGAGCUCGAGAACAUCUUCGGAUGCAGAGGAGGCAGGCCUCGGUGGCGCGAUAGCACCAACGUCCUCAACCUCCAAUGCAUCCCACAACAUGAUGAUGCCUGAAGAGACUUGGUUUUUUG [U54C G71A C102A C123A] , readout=polymerase ribozyme fitness (log ratio)) returns -3.7

get_value(item= GACCAAUCUGCCCUCAGAGCUCGAGAACAUCUUCGGAUGCAGGGGAGGCAGGCUUCGGUGGCGCGAUACCGCCAACGUCCUCAACCUCCCAUGCAUCCCACCACAUGAUGAUGCCUGAAGAGCGUUGGUUUUUUG [A43G G69C A90C C124G] , readout=polymerase ribozyme fitness (log ratio)) returns -0.889

get_value(item= GACCAAUCUGCCCUCAGAGCUCGAGAACAUCUUCGGAUGCAGAGGAGGCAGGCUUCAGUGGCGCGCUAGCGCCAACGUCCUCAACCUCCAAUGCAUCCCACCACAUGAUGAUGCCUGAAGAGCCUUGGUUUUUUG [G57A A66C] , readout=polymerase ribozyme fitness (log ratio)) returns -2.98

get_value(item= GACCAAUGUACCCUCCGAGCUCGAGAACAUCUUCGGAUGCAGAGGAGGCAGGCUUCGGUGGCGCGAUAGCGCCAACGUCCUCAACCUCCAAUGCUUCCCACCACAUGAUGAUGCCUGAAGAUCCUUGGUUUUUUG [C8G G10A A16C A95U G122U] , readout=polymerase ribozyme fitness (log ratio)) returns -0.858

get_value(item= GACCAAUCUGCCCUCAGAGCUCGAGAACAUCUUCGGAUGCAGAGUAGGCAGGCUUCGGUGGCGCGAUAGCGACAACGUCCUCAACCACCAAUGCAUCCCACCACAUGAUGAUGCCUGAAGCGCCUUGGUUUUUUG [G45U C72A U87A A121C] , readout=polymerase ribozyme fitness (log ratio)) returns 0.113

get_value(item= GACCAAUCUGCCCUCAGAGCUCGAGAACAUCUUCGGAUGCAGAGGAGCCAGGCUUCGGUGUCGCGAUAGCGCCAACGUCCUCAACCUCCAAUGCAUCCCACCACAUGAUGAUGCCUGAAGAGCCUUGGUUUUUUG [G48C G61U] , readout=polymerase ribozyme fitness (log ratio)) returns 0.754

get_value(item= GACCAAUCUGCCCUCAGGGCUCGAGAACAUCUUCGGAUGCAGAGGAGACAGGCUUCGGUGGCGCGAUAGCGCCAACGUCCUCAACCUCCAAUGCAUCCCACCACAUGAUGAUGCCGGAAGAGCCUUGGUUUUUUG [A18G G48A U116G] , readout=polymerase ribozyme fitness (log ratio)) returns -3.25

get_value(item= GACCAAUCUGCCCUCAGAGCUCGAGAACAUCUUCGGAUGCAGAGGAGGCAGGUUUCGGUGGCGCGAUAGCGACAACGUCCUCAACCUCCAGUGCAUCCCACCACAUGAUGAUGCCUGAAGAGCCUUGGUUUAUUG [C53U C72A A91G U132A] , readout=polymerase ribozyme fitness (log ratio)) returns 0.186

get_value(item= GACCAAUCUACCCUCAGACCUCGAGAACAUCUUCGGAUGCAGAGGAGGCAGGCUUCGGUGGCCCGAUAGCGCCAACGUCCUCAACCUCCAAUGCAUCCCACCACAUGAUGAGGCCUGAAGAGCCUUGGUUUUGUG [G10A G19C G63C U112G U133G] , readout=polymerase ribozyme fitness (log ratio)) returns -5.97
